Exercise: for every item that follows, state its recorded viability, T/C.
system: 454973-116-R2-J3-PDC spheroids, viability, % test/control; test: Anticancer human tumor 454973-116-R2-J3-PDC patient-derived pancreatic carcinoma cell line growth inhibition [GQUAD]; conditions: second compound 3.16 µM; first compound 0.316 µM; stronger effect = lower value; spheroids with HUVEC and MSC
Numbers only, in %.

# compound, viability, T/C, %
data = [
    ("COc1ccc([C@@H](O)c2cc(-c3ncnc4cc(N5CCOCC5)ccc34)c(F)cc2Cl)nn1 + Cc1[nH]c2ccc(F)cc2c1-c1nc2c3cccnc3c3ncccc3c2[nH]1", 92.3),
    ("CC(C)n1c(=O)n(C)c2cnc3cc(F)c(-c4ccc(OCCCN5CCCCC5)nc4)cc3c21 + Cc1[nH]c2ccc(F)cc2c1-c1nc2c3cccnc3c3ncccc3c2[nH]1", 96.8),
    ("CCc1c2c(nc3ccc(O)cc13)-c1cc3c(c(=O)n1C2)COC(=O)[C@]3(O)CC + CN(C)c1ccc(Nc2c3ccc(NC(=O)CCN4CCCC4)cc3nc3cc(NC(=O)CCN4CCCC4)ccc23)cc1", 5.7),
    ("Cc1[nH]c2ccccc2c1CCNCc1ccc(/C=C/C(=O)NO)cc1 + CN(C)c1ccc(Nc2c3ccc(NC(=O)CCN4CCCC4)cc3nc3cc(NC(=O)CCN4CCCC4)ccc23)cc1", 7.17),
    ("Cc1[nH]c2ccccc2c1CCNCc1ccc(/C=C/C(=O)NO)cc1 + Cc1[nH]c2ccc(F)cc2c1-c1nc2c3cccnc3c3ncccc3c2[nH]1", 9.17),
]

Ask: Give reported viability, T/C value for Cc1cccc(N(C)C(=O)C2C(O)CCN2c2nc(C)cc(C(F)(F)F)c2C#N)c1 (stereo unspecified) + CN(C)c1ccc(Nc2c3ccc(NC(=O)CCN4CCCC4)cc3nc3cc(NC(=O)CCN4CCCC4)ccc23)cc1
Reply: 85

* * *

test system: 454973-116-R2-J3-PDC spheroids, viability, % test/control; assay: Anticancer human tumor 454973-116-R2-J3-PDC cell line growth inhibition [GQUAD]; conditions: curve of first compound; second compound 1 µM; spheroids with HUVEC and MSC;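 further: spheroids exposed to compounds for seven days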
recordedEndpoint: log10 IC50 (log10 of the value in nM)
Quick note: numbers are log10 of IC50, with nM as the unit.

Field: example entries. Status: answers known.
# compound, experimentalSystem, log10 IC50
records = [
    ("CC(C)(O)C1CCC(Nc2ccc3ncc(-c4cccc(C(F)(F)F)c4)n3n2)CC1 (centres undefined) + CN(C)c1ccc(Nc2c3ccc(NC(=O)CCN4CCCC4)cc3nc3cc(NC(=O)CCN4CCCC4)ccc23)cc1", "454973-116-R2-J3-PDC spheroids, viability, % test/control", 3.10),
    ("CCc1c2c(nc3ccc(O)cc13)-c1cc3c(c(=O)n1C2)COC(=O)[C@]3(O)CC + CN(C)c1ccc(Nc2c3ccc(NC(=O)CCN4CCCC4)cc3nc3cc(NC(=O)CCN4CCCC4)ccc23)cc1", "454973-116-R2-J3-PDC spheroids, viability, % test/control", 0.23),
    ("C=CCn1c(=O)c2cnc(Nc3ccc(N4CCN(C)CC4)cc3)nc2n1-c1cccc(C(C)(C)O)n1 + Cc1cnc(CNC(=O)c2c(=O)c3ccc(N4CCCN(C)CC4)nc3n3c2sc2ccccc23)cn1", "454973-116-R2-J3-PDC spheroids, viability, % test/control", 2.42),
    ("CC[C@@]1(O)C(=O)OCc2c1cc1n(c2=O)Cc2cc3c(CN(C)C)c(O)ccc3nc2-1 + CN(C)c1ccc(Nc2c3ccc(NC(=O)CCN4CCCC4)cc3nc3cc(NC(=O)CCN4CCCC4)ccc23)cc1", "454973-116-R2-J3-PDC spheroids, viability, % test/control", 1.51),
    ("Cc1[nH]c2ccccc2c1CCNCc1ccc(/C=C/C(=O)NO)cc1 + CN(C)c1ccc(Nc2c3ccc(NC(=O)CCN4CCCC4)cc3nc3cc(NC(=O)CCN4CCCC4)ccc23)cc1", "454973-116-R2-J3-PDC spheroids, viability, % test/control", 1.69),
]

Give measured log10 IC50 for every item shown.
1. C=CCn1c(=O)c2cnc(Nc3ccc(N4CCN(C)CC4)cc3)nc2n1-c1cccc(C(C)(C)O)n1 + Cc1[nH]c2ccc(F)cc2c1-c1nc2c3cccnc3c3ncccc3c2[nH]1
2. COc1cc(C2c3cc4c(cc3C(OC3OC5COC(C)OC5C(O)C3O)C3COC(=O)C23)OCO4)cc(OC)c1O (centres undefined) + Cc1[nH]c2ccc(F)cc2c1-c1nc2c3cccnc3c3ncccc3c2[nH]1
3. CC1COCCN1c1cc(C2(O)CC3CCC(C2)O3)c2cnn(-c3ccn[nH]3)c2n1 (centres undefined) + Cc1[nH]c2ccc(F)cc2c1-c1nc2c3cccnc3c3ncccc3c2[nH]1
4. CC[C@@]1(O)C(=O)OCc2c1cc1n(c2=O)Cc2cc3c(CN(C)C)c(O)ccc3nc2-1 + Cc1cnc(CNC(=O)c2c(=O)c3ccc(N4CCCN(C)CC4)nc3n3c2sc2ccccc23)cn1
5. O=C(NO)c1cnc(N2CCN(S(=O)(=O)c3ccc4ccccc4c3)CC2)nc1 + Cc1[nH]c2ccc(F)cc2c1-c1nc2c3cccnc3c3ncccc3c2[nH]1
6. COc1ccc([C@@H](O)c2cc(-c3ncnc4cc(N5CCOCC5)ccc34)c(F)cc2Cl)nn1 + Cc1cnc(CNC(=O)c2c(=O)c3ccc(N4CCCN(C)CC4)nc3n3c2sc2ccccc23)cn1

Reply:
1: 2.64; 2: 3.05; 3: 2.15; 4: 1.39; 5: 2.68; 6: 2.72

Attribution: PubChem BioAssay AID2060508
